Target: T1, human GIP receptor (human, UniProt P48546 22-466)
T1 sequence (looked up): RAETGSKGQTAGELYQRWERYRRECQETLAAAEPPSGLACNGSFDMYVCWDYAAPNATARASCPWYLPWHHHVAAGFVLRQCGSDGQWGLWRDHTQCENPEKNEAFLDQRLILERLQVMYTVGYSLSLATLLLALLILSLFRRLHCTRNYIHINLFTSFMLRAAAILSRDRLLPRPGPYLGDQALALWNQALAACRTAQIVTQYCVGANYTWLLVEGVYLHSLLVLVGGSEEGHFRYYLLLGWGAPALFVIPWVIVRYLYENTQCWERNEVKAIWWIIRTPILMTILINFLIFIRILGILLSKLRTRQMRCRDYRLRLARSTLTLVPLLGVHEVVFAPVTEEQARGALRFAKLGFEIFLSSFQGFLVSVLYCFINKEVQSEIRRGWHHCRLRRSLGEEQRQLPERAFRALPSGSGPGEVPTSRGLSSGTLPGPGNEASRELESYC
Assay: cell-based or functional assay
Non-standard residues stand in square brackets, D forms with d. No end group written: not given here. Aib = CC(C)(N)C(=O)O
Each entry below carries its reported EC50 CreLuc hGIPR 0.5% hP.
Value expressed in nM; do not type the unit.

Known results for binders:
>>> measured_result("YXEGTFTSDYSIXLEKQAQXAFVEWLIKGGPSSGASLRHYYNWXTRQRY (Aib at 2, 13, 20; Tle at 44; K28 side chain: C20DA-gGlu-gGlu-gGlu-gGlu-gGlu-gGlu-eLys; C-terminal NH2) [Compound 137]")
0.28
>>> measured_result("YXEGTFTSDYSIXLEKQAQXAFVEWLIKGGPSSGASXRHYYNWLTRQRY (Aib at 2, 13, 20, 37; K28 side chain: C20DA-gGlu-gGlu-gGlu-gGlu-gGlu-gGlu-eLys; C-terminal NH2) [Compound 118]")
0.06
>>> measured_result("Y[Aib]EGTFTSDYSI[Aib]LEEQAQ[Aib]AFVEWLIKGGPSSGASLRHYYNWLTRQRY-NH2 (not fully specified (residue 28)) [Compound 105]")
0.2

Lab book: EC50 CreLuc hGIPR 0.5% hP of YXEGTFTSDYSIXLEQQAQXAFVEWLIKGGPSSGASLRHYYNWLTRQRY (Aib at 2, 13, 20; K28 side chain: C20DA-gGlu-gGlu-gGlu-gGlu-Glu-gGlu-eLys; C-terminal NH2) [Compound 124] noted as 0.26

Reported EC50 CreLuc hGIPR 0.5% hP of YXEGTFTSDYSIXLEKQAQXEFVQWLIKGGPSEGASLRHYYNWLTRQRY (Aib at 2, 13, 20; K28 side chain: C18DA-gGlu-gGlu-gGlu-gGlu-gGlu; C-terminal NH2) [Compound 141] : 0.4
